Quick reference: MIC of the listed items.
System: Trichophyton mentagrophytes #4329
Assay: MIC, two-fold agar dilution, T. mentagrophytes #4329
Assay type: cell-based
Conditions: Trichophyton mentagrophytes #4329; YMA pH 7.0, 28° C., 60 hours; read-out: MIC
Protocol: Minimum inhibitory concentrations (MICs) of nine 4'-N-substituted pradimicin derivatives were determined by two-fold agar dilution method on phosphate-buffered yeast morphology agar (YMA, pH 7.0, Difco Laboratories). A 5-μl of fungal cell suspension containing 2×10^6 cells/ml (2×10^7 cells/ml for Trichophyton mentagrophytes) were spotted on the surface of the agar plates containing test compound. […]
Respond with the bare value in µg/mL.

{"compound": "COc1cc(O)c2c(c1)C(=O)c1c(cc3c(c1O)-c1c(cc(C)c(C(=O)N[C@H](C)C(=O)O)c1O)[C@H](O[C@@H]1O[C@H](C)[C@H](N)[C@H](O[C@@H]4OC[C@@H](O)[C@H](O)[C@H]4O)[C@H]1O)[C@H]3O)C2=O", "observation-type": "MIC", "result": 3.1}

// below: MIC requested for another compound
# input I have this compound here, COc1cc(O)c2c(c1)C(=O)c1c(cc3c(c1O)-c1c(cc(C)c(C(=O)N[C@H](CO)C(=O)O)c1O)[C@H](O[C@@H]1O[C@H](C)[C@H](N)[C@H](O[C@@H]4OC[C@@H](O)[C@H](O)[C@H]4O)[C@H]1O)[C@H]3O)C2=O [Pradimicin FA-2, reference compound] , and I need its recorded MIC.
# output 3.1

---

System: Candida albicans A9540
Test: animal or person
Format: in vivo, male ICR mice infected with Candida albicans A9540
Details: Candida albicans, A9540, 480 h; C. albicans, mice, 50 mg/kg iv, 20th day post-infection; read-out: S/T (No. of survivors/tested) (converted)
Method: The in vivo therapeutic efficacies of seven 4'-N-substituted pradimicin derivatives, KHM-1, KHM-2, KHM-3, KHM-4, KHM-5, KHM-6 and KHM-7 were evaluated in the mouse infected with Candida albicans A9540 and Aspergillus fumigatusIAM 2034. Groups of five specific-pathogen-free male ICR mice weighing 20-25 g at each dose level were intravenously infected with approximately 10 times the 50% lethal dose of C. albicans A9540 (1×10^6 cells/mouse) or A. fumigatus IAM 2034 (1×10^7 cells/mouse). […]
Quick reference: responders at 50 mg/kg of the listed items.
Respond with the bare value in %.

{"compound": "COc1cc(O)c2c(c1)C(=O)c1c(cc3c(c1O)-c1c(cc(C)c(C(=O)N[C@H](CO)C(=O)O)c1O)[C@H](O[C@@H]1O[C@H](C)[C@H](N)[C@H](O[C@@H]4OC[C@@H](O)[C@H](O)[C@H]4O)[C@H]1O)[C@H]3O)C2=O [Pradimicin FA-2, reference compound]", "responders at 50 mg/kg / %": 100}
{"compound": "COc1cc(O)c2c(c1)C(=O)c1c(cc3c(c1O)-c1c(cc(C)c(C(=O)N[C@H](CO)C(=O)O)c1O)[C@H](O[C@@H]1O[C@H](C)[C@H](N(C)C#N)[C@H](O[C@@H]4OC[C@@H](O)[C@H](O)[C@H]4O)[C@H]1O)[C@H]3O)C2=O", "responders at 50 mg/kg / %": 40}
{"compound": "COc1cc(O)c2c(c1)C(=O)c1c(cc3c(c1O)-c1c(cc(C)c(C(=O)N[C@H](C)C(=O)O)c1O)[C@H](O[C@@H]1O[C@H](C)[C@H](N)[C@H](O[C@@H]4OC[C@@H](O)[C@H](O)[C@H]4O)[C@H]1O)[C@H]3O)C2=O", "responders at 50 mg/kg / %": 0}
{"compound": "CN[C@@H]1[C@H](O[C@@H]2OC[C@@H](O)[C@H](O)[C@H]2O)[C@@H](O)[C@H](O[C@H]2c3cc(C)c(C(=O)N[C@H](CO)C(=O)O)c(O)c3-c3c(cc4c(c3O)C(=O)c3cc(OC)cc(O)c3C4=O)[C@@H]2O)O[C@@H]1C [Pradimicin FA-1, reference compound]", "responders at 50 mg/kg / %": 100}

// below: responders at 50 mg/kg requested for another compound
# input I have this compound here, COc1cc(O)c2c(c1)C(=O)c1c(cc3c(c1O)-c1c(cc(C)c(C(=O)N[C@H](C)C(=O)O)c1O)[C@H](O[C@@H]1O[C@H](C)[C@H](NC#N)[C@H](O[C@@H]4OC[C@@H](O)[C@H](O)[C@H]4O)[C@H]1O)[C@H]3O)C2=O , and I need its recorded responders at 50 mg/kg.
# output 100

---

Tested on: Aspergillus fumigatus IAM 2034
Assay: MIC, two-fold agar dilution, A. fumigatus IAM 2034
Type: cell-based
Details: IAM2034; Aspergillus fumigatus IAM 2034; YMA pH 7.0, 28° C., 40 hours; read-out: MIC
observation-type: MIC (µg/mL)
Respond with the bare value in µg/mL.

# input I have this compound here, COc1cc(O)c2c(c1)C(=O)c1c(cc3c(c1O)-c1c(cc(C)c(C(=O)N[C@H](C)C(=O)O)c1O)[C@H](O[C@@H]1O[C@H](C)[C@H](NC(=N)N[N+](=O)[O-])[C@H](O[C@@H]4OC[C@@H](O)[C@H](O)[C@H]4O)[C@H]1O)[C@H]3O)C2=O , and I need its recorded MIC.
# output 3.1

# input I have this compound here, COc1cc(O)c2c(c1)C(=O)c1c(cc3c(c1O)-c1c(cc(C)c(C(=O)N[C@H](CO)C(=O)O)c1O)[C@H](O[C@@H]1O[C@H](C)[C@H](NC#N)[C@H](O[C@@H]4OC[C@@H](O)[C@H](O)[C@H]4O)[C@H]1O)[C@H]3O)C2=O , and I need its recorded MIC.
# output 6.3

# input I have this compound here, COc1cc(O)c2c(c1)C(=O)c1c(cc3c(c1O)-c1c(cc(C)c(C(=O)N[C@H](CO)C(=O)O)c1O)[C@H](O[C@@H]1O[C@H](C)[C@H](N(C)N=O)[C@H](O[C@@H]4OC[C@@H](O)[C@H](O)[C@H]4O)[C@H]1O)[C@H]3O)C2=O , and I need its recorded MIC.
# output 3.1

---

Quick reference: MIC of the listed items.
Test system: Candida albicans A9540
Assay: MIC, two-fold agar dilution, C. albicans A9540
Format: cell-based
Settings: Candida albicans A9540; YMA pH 7.0, 28° C., 40 hours; read-out: MIC
Respond with the bare value in µg/mL.

Below, each entry is followed by its recorded MIC result.
{"compound": "COc1cc(O)c2c(c1)C(=O)c1c(cc3c(c1O)-c1c(cc(C)c(C(=O)N[C@H](C)C(=O)O)c1O)[C@H](O[C@@H]1O[C@H](C)[C@H](N)[C@H](O[C@@H]4OC[C@@H](O)[C@H](O)[C@H]4O)[C@H]1O)[C@H]3O)C2=O [Pradimicin C]", "target": "Candida albicans A9540", "MIC, µg/mL": 25}
{"compound": "COc1cc(O)c2c(c1)C(=O)c1c(cc3c(c1O)-c1c(cc(C)c(C(=O)N[C@H](CO)C(=O)O)c1O)[C@H](O[C@@H]1O[C@H](C)[C@H](N(C)N=O)[C@H](O[C@@H]4OC[C@@H](O)[C@H](O)[C@H]4O)[C@H]1O)[C@H]3O)C2=O [KHM-5, 4'-N-Nitrosopradimicin FA-1]", "target": "Candida albicans A9540", "MIC, µg/mL": 6.3}
{"compound": "COc1cc(O)c2c(c1)C(=O)c1c(cc3c(c1O)-c1c(cc(C)c(C(=O)N[C@H](C)C(=O)O)c1O)[C@H](O[C@@H]1O[C@H](C)[C@H](N(C)C#N)[C@H](O[C@@H]4OC[C@@H](O)[C@H](O)[C@H]4O)[C@H]1O)[C@H]3O)C2=O [KHM-1, 4'-N-Cyanogradimicin A]", "target": "Candida albicans A9540", "MIC, µg/mL": 3.1}
{"compound": "COc1cc(O)c2c(c1)C(=O)c1c(cc3c(c1O)-c1c(cc(C)c(C(=O)N[C@H](C)C(=O)O)c1O)[C@H](O[C@@H]1O[C@H](C)[C@H](NC(=N)N)[C@H](O[C@@H]4OC[C@@H](O)[C@H](O)[C@H]4O)[C@H]1O)[C@H]3O)C2=O [KHM-8, 4'-Guanidinopradimicin C]", "target": "Candida albicans A9540", "MIC, µg/mL": 12.5}
{"compound": "COc1cc(O)c2c(c1)C(=O)c1c(cc3c(c1O)-c1c(cc(C)c(C(=O)N[C@H](CO)C(=O)O)c1O)[C@H](O[C@@H]1O[C@H](C)[C@H](N(C)C#N)[C@H](O[C@@H]4OC[C@@H](O)[C@H](O)[C@H]4O)[C@H]1O)[C@H]3O)C2=O [KHM-3, 4'-Cyanooradimicin FA-1]", "target": "Candida albicans A9540", "MIC, µg/mL": 6.3}

// below: MIC requested for another compound
# input I have this compound here, COc1cc(O)c2c(c1)C(=O)c1c(cc3c(c1O)-c1c(cc(C)c(C(=O)N[C@H](C)C(=O)O)c1O)[C@H](O[C@@H]1O[C@H](C)[C@H](NC#N)[C@H](O[C@@H]4OC[C@@H](O)[C@H](O)[C@H]4O)[C@H]1O)[C@H]3O)C2=O [KHM-2, 4'-N-Cyanopradimicin C] , and I need its recorded MIC.
# output 3.1
